src = ChEMBL document CHEMBL1121780

log10(LD50) overview
# procedure-text: Toxicity estimated in mouse as LD50 by intravenous administration
# Format: organism-based
# run-parameters: in vivo
measured-quantity: log10(LD50) (log10 of the value in mg/kg)

>>> assay_result("CNC(=O)Nc1c(OCCCCN2CCCCC2)c(OC)c2occc2c1OC")
1.83
>>> assay_result("CNC(=O)Nc1c(OCCNC2CCCCC2)c(OC)c2occc2c1OC")
0.98
>>> assay_result("CCCNC(=O)Nc1c(OCCN2CCCCC2)c(OC)c2occc2c1OC")
1.27
>>> assay_result("COc1c(NC(=O)Nc2ccccc2)c(OCCN2CCCCC2)c(OC)c2occc12")
0.95
>>> assay_result("COc1c(NC(=O)N(C)C)c(OCCN2CCCCC2)c(OC)c2occc12")
1.40
>>> assay_result("COc1c(NC(=O)NC(C)(C)C)c(OCCN2CCCCC2)c(OC)c2occc12")
1.06
>>> assay_result("CCN(CC)CCOc1c(NC(C)=O)c(OC)c2ccoc2c1OC")
1.93
>>> assay_result("COc1c(NC(C)=O)c(OCCNC(C)C)c(OC)c2occc12")
1.94
>>> assay_result("CNC(=O)Nc1c(OC)c2c(c(OC)c1OCCN1CCCCC1)OCC2")
2.26
>>> assay_result("CCN(CC)CCCOc1c(NC(=O)NC)c(OC)c2ccoc2c1OC")
1.88
>>> assay_result("CNC(=O)Nc1c(OCC(C)N2CCCCC2)c(OC)c2occc2c1OC (stereo not drawn)")
1.56
>>> assay_result("COc1c(NC(C)=O)c(OCCCN2CCCCC2)c(OC)c2occc12")
1.61
>>> assay_result("CNC(=O)Nc1c(OCCN2CCCCC2)c(OC)c2occc2c1OC [MUROCAINIDE]")
1.70
>>> assay_result("COc1c(N)c(OCCN2CCCCC2)c(OC)c2occc12")
1.32
>>> assay_result("COc1c(NC(N)=O)c(OCCN2CCCCC2)c(OC)c2occc12")
1.60
>>> assay_result("COC(=O)Nc1c(OCCN2CCCCC2)c(OC)c2occc2c1OC")
1.18
>>> assay_result("C=C[C@H]1CN2CC[C@H]1C[C@@H]2[C@@H](O)c1ccnc2ccc(OC)cc12 [QUINIDINE]")
1.95
>>> assay_result("CNC(=O)Nc1c(OCCCN(C)C)c(OC)c2occc2c1OC")
1.64
>>> assay_result("COc1c(NC(C)=O)c(OCCN2CCCC2)c(OC)c2occc12")
1.90
>>> assay_result("CNC(=O)N(C)c1c(OCCN2CCCCC2)c(OC)c2occc2c1OC")
1.82
>>> assay_result("CNC(=O)Nc1c(OCCN2CCCCCC2)c(OC)c2occc2c1OC")
1.49
>>> assay_result("CCNC(=O)Nc1c(OCCN2CCCCC2)c(OC)c2occc2c1OC")
1.45
>>> assay_result("COc1c(NC(C)=O)c(OCCN2CCCCC2)c(OC)c2occc12")
1.72
